- TEST_TARGET: HSD17B13 (Homo sapiens (Human))
- MEASUREMENT_NOTES: HSD17B13 enzymatic inhibition assay (150 nM or 50 nM HSD17B13)
- Format: biochemical
- TEST_CONDITIONS: 50 nM HSD17B13; read-out: Inhibition of 50 nM of HSD17B13 IC50
METRIC: IC50 (nM)

Use these answered entries as a reference point.
MOLECULE	READOUT_UNITS	IC50
CCCC1Cc2cc(C)ccc2C(NC(=O)c2ccc(C(F)(F)F)[nH]c2=O)C1 (stereo not shown) [Compound 387]	nM	50
CCC[C@H]1Oc2ccc(C)cc2[C@@H]1NC(=O)c1ccc(C(F)(F)F)[nH]c1=O [Compound 353]	nM	520
CCC[C@H]1C[C@@H](NC(=O)c2cc(-c3ccccc3)c(C(F)(F)F)[nH]c2=O)c2cc(C)ccc2N1 [Compound 265]	nM	80
CCc1cccc(C(NC(=O)c2ccc(C(F)(F)F)[nH]c2=O)c2ccccc2)c1 (stereo not shown) [Compound 466]	nM	600

[A] Cc1ccc2c(c1)Oc1cccc(C)c1C2NC(=O)c1cc(Cc2ccccc2)c(C(F)(F)F)[nH]c1=O (stereo not shown) [Compound 502]
[B] O=C(NC1c2ccncc2Oc2cc(O)ccc21)c1ccc(C(F)(F)F)[nH]c1=O (stereo not shown) [Compound 320]
-- ask Out of A and B , name the one with the higher IC50. Answer with the label corresponding to your selection.
-- reply B
(B: 600 nM, A: 260 nM)

====

- TEST_TARGET: UniProt:Q7Z5P4
- MEASUREMENT_NOTES: HSD17B13 enzymatic inhibition assay (150 nM or 50 nM HSD17B13)
- Assay type: biochemical
- TEST_CONDITIONS: 50 nM HSD17B13; read-out: Inhibition of 50 nM of HSD17B13 IC50
METRIC: IC50 (nM)

Use these answered entries as a reference point.
COMPOUND	EXPERIMENTAL_VALUE
COc1ccc2c(c1)C(NC(=O)c1ccc(C(F)(F)F)[nH]c1=O)c1cc(OC)ccc1-2 [Compound 415]	50
CN1CC(c2ccc3c(c2)Oc2ccccc2C3NC(=O)c2ccc(C(F)(F)F)[nH]c2=O)C1 (centres unmarked) [Compound 484]	4980
O=C(NC(c1ccccc1)c1ccc(C2=CCNCC2)cc1)c1ccc(C(F)(F)F)[nH]c1=O (centres unmarked) [Compound 105]	4280
O=C(NC1c2ccccc2Oc2ccc(C3COC3)cc21)c1ccc(C(F)(F)F)[nH]c1=O (centres unmarked) [Compound 489]	230

[P] O=C(NC(c1ccc(Cl)cc1)c1ccccn1)c1ccc(C(F)(F)F)[nH]c1=O (centres unmarked) [Compound 67]
[Q] COc1ccc(C(NC(=O)c2ccc(C(F)(F)F)[nH]c2=O)c2ccccc2)cc1 (centres unmarked) [Compound 26]
-- ask Out of P and Q , name the one with the higher IC50. Answer with the label corresponding to your selection.
-- reply P

====

- TEST_TARGET: HSD17B13 (Homo sapiens (Human), UniProt Q7Z5P4)
- Sequence (Q7Z5P4 other isoform, or with tags, fused parts or gaps): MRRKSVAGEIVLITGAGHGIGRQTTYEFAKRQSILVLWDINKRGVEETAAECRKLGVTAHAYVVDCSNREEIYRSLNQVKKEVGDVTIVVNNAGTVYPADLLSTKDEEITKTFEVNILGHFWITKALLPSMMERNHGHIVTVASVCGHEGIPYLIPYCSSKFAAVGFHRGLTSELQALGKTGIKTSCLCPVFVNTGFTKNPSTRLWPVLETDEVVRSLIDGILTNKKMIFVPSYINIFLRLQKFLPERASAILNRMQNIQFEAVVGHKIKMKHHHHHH
- MEASUREMENT_NOTES: HSD17B13 enzymatic inhibition assay (150 nM or 50 nM HSD17B13)
- Assay type: biochemical
- TEST_CONDITIONS: 50 nM HSD17B13; read-out: Inhibition of 50 nM of HSD17B13 IC50
METRIC: IC50 (nM)

[A] CCC[C@H]1Oc2cc(C)ccc2[C@@H]1NC(=O)c1ccc(C(F)(F)F)[nH]c1=O [Compound 358]
[B] Cc1ccc2c(c1)CC(C)CC2NC(=O)c1ccc(C(F)(F)F)[nH]c1=O (centres unmarked) [Compound 391]
[C] CSc1ccccc1C(NC(=O)c1ccc(C(F)(F)F)[nH]c1=O)c1cccc(C)c1 (centres unmarked) [Compound 245]
[D] CCC1CC(NC(=O)c2ccc(C(F)(F)F)[nH]c2=O)c2cc(C)ccc2O1 (centres unmarked) [Compound 404]
[E] CC[C@@H](O)C[C@@H](NC(=O)c1ccc(C(F)(F)F)[nH]c1=O)c1ccc(C)cc1 [Compound 554]
-- ask Order these by IC50, descending, and give the full ranking. Would you mind listing the labels in the order asked for?
-- reply E, C, A, D, B

[a] CC[C@@H]1Oc2cc(C)ccc2[C@H]1NC(=O)c1ccc(C(F)(F)F)[nH]c1=O [Compound 360]
[b] Cc1ccc(C(NC(=O)c2ccc(C(F)(F)F)[nH]c2=O)c2ccccc2S(C)(=O)=O)cc1 (centres unmarked) [Compound 450]
-- ask Lower value of IC50 belongs to which: a or b ? Answer with the label corresponding to your selection.
-- reply a

[I] O=C(NC1c2ccccc2C=Cc2ccccc21)c1ccc(C(F)(F)F)[nH]c1=O [Compound 5A]
[II] O=C(NC(c1ccccc1)c1ccc2c(c1)CCOC2)c1ccc(C(F)(F)F)[nH]c1=O (centres unmarked) [Compound 82]
[III] Cc1cccc(C(NC(=O)c2ccc(C(F)(F)F)[nH]c2=O)c2ccccc2)c1S(C)(=O)=O (centres unmarked) [Compound 453]
-- ask Order the records so the highest IC50 appears first and the lowest last. Would you mind listing the labels in the order asked for?
-- reply III, I, II
(III: 3230 nM, I: 1520 nM, II: 840 nM)

[P] CN(C)c1ccc(C(NC(=O)c2ccc(C(F)(F)F)[nH]c2=O)c2ccccc2)cc1 (centres unmarked) [Compound 41]
[Q] CCc1cccc(C(NC(=O)c2ccc(C(F)(F)F)[nH]c2=O)c2ccccc2SC)c1 (centres unmarked) [Compound 455]
[R] O=C(NC1CCc2cc(O)ccc21)c1ccc(C(F)(F)F)[nH]c1=O (centres unmarked) [Compound 135]
[S] COc1ccccc1C(NC(=O)c1ccc(C(F)(F)F)[nH]c1=O)c1ccc(C)cc1 (centres unmarked) [Compound 244]
-- ask Order the records so the highest IC50 appears first and the lowest last. Would you mind listing the labels in the order asked for?
-- reply R, P, Q, S

====

- MEASUREMENT_NOTES: Microsome stability assay, mouse liver microsomes
- Format: in vitro ADME
- TEST_CONDITIONS: mouse, mouse liver microsomes, pooled; 1 μM compound, 0.5 mg/mL microsomal protein, NADPH, 37° C.; read-out: Microsome Stability Mouse liver microsomes Cl
METRIC: microsomal CLint at 1 μM

-- ask Please report the measured microsomal CLint at 1 μM for Cc1ccc2c(c1)[C@H](NC(=O)c1ccc(C(F)(F)F)[nH]c1=O)C[C@@H](C)N2
-- reply < 9.6 µL/min/mg

-- ask Please report the measured microsomal CLint at 1 μM for COC1Cc2cc(C)ccc2C1NC(=O)c1ccc(C(F)(F)F)[nH]c1=O (stereo not drawn)
-- reply < 9.6 µL/min/mg

====

- TEST_TARGET: HSD17B1 (Homo sapiens (Human))
- Sequence (P14061 other isoform, or with tags, fused parts or gaps): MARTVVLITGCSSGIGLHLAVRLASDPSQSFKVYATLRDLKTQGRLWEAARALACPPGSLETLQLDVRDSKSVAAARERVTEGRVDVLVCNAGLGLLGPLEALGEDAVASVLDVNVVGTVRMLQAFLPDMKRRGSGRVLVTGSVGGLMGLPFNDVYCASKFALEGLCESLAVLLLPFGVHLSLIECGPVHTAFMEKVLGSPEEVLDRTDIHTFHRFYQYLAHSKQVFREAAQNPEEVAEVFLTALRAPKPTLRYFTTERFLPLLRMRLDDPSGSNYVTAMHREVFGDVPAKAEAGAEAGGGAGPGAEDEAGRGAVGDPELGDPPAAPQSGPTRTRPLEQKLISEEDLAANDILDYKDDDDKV
- MEASUREMENT_NOTES: HSD17B1 enzymatic blocking assay
- Format: biochemical
- TEST_CONDITIONS: 25 μM Estradiol, 500 μM NAD; read-out: Inhibition of HSD17B1 IC50
pIC50: −log10 of the molar value.
METRIC: pIC50

Use these answered entries as a reference point.
COMPOUND	TEST_TARGET	pIC50
CCCc1sc2cc(C)ccc2c1NC(=O)c1ccc(C(F)(F)F)[nH]c1=O [Compound 308]	HSD17B1 (Homo sapiens (Human))	4.81
Cc1ccc2c(c1)Sc1cc(C)ccc1C2NC(=O)c1ccc(C(F)(F)F)[nH]c1=O [Compound 252]	HSD17B1 (Homo sapiens (Human))	5.23

[a] Cc1ccc2c(c1)Oc1cc(C)ccc1C2NC(=O)c1cc(CCc2ccccc2)c(C(F)(F)F)[nH]c1=O [Compound 520]
[b] Cc1ccc2c(c1)Sc1cc(C)ccc1C2NC(=O)c1cc(-c2ccncc2)c(C(F)(F)F)[nH]c1=O [Compound 495]
[c] Cc1ccc2c(c1)Oc1cc(C)ccc1C2NC(=O)c1ccc(C(F)(F)F)[nH]c1=O [Compound 52]
-- ask Rank items: key pIC50, increasing. Would you mind listing the labels in the order asked for?
-- reply a, c, b

[a] O=C(NC1c2ccccc2Oc2ccc(C3CC3)cc21)c1ccc(C(F)(F)F)[nH]c1=O (centres unmarked) [Compound 161]
[b] COc1ccc2c(c1)C(NC(=O)c1ccc(C(F)(F)F)[nH]c1=O)c1ccccc1-2 (centres unmarked) [Compound 416]
-- ask Out of a and b , name the one with the higher pIC50. Answer with the label corresponding to your selection.
-- reply a

[A] Cc1ccc2c(c1)Oc1cc(C)ccc1C2NC(=O)c1cnc(C(F)(F)F)[nH]c1=O [Compound 194]
[B] Cc1ccc2c(c1)Sc1cc(C)ccc1C2NC(=O)c1cc(-c2ccccc2)c(C(F)(F)F)[nH]c1=O [Compound 306]
-- ask Out of A and B , name the one with the higher pIC50. Answer with the label corresponding to your selection.
-- reply B

====

- TEST_TARGET: HSD17B13 (Homo sapiens (Human), UniProt Q7Z5P4)
- MEASUREMENT_NOTES: HSD17B13 enzymatic inhibition assay (150 nM or 50 nM HSD17B13)
- Assay type: biochemical
- TEST_CONDITIONS: 50 nM HSD17B13; read-out: Inhibition of 50 nM of HSD17B13 IC50
METRIC: IC50 (nM)

Use these answered entries as a reference point.
COMPOUND	IC50 / nM
Cc1ccc2c(c1)C(NC(=O)c1ccc(C(F)(F)F)[nH]c1=O)C(C)C2 (stereo not shown)	190
CCc1cccc(C(NC(=O)c2ccc(C(F)(F)F)[nH]c2=O)c2ccccc2OC)c1 (stereo not shown)	1810
Cc1ccc2c(c1)Oc1cc(Cl)ccc1C2NC(=O)c1ccc(C(F)(F)F)[nH]c1=O (stereo not shown)	20
O=C(NC1c2ccccc2Oc2cc(C3CNC3)ccc21)c1ccc(C(F)(F)F)[nH]c1=O (stereo not shown)	1110
O=C(NC1c2ccc(CC(F)(F)F)cc2Oc2cc(CC(F)(F)F)ccc21)c1ccc(C(F)(F)F)[nH]c1=O	310
COc1ccc2c(c1)CC(OC)C2NC(=O)c1ccc(C(F)(F)F)[nH]c1=O (stereo not shown)	700

[P] COc1ccc2c(c1)Sc1cc(N)ccc1C2NC(=O)c1ccc(C(F)F)[nH]c1=O (stereo not shown)
[Q] O=C(NC(c1ccccc1)c1ccc(O)c(F)c1)c1ccc(C(F)(F)F)[nH]c1=O (stereo not shown) [Compound 16A]
[R] Cc1ccc2c(c1)Oc1cccc(C)c1C2NC(=O)c1cc(C2CCCCC2)c(C(F)(F)F)[nH]c1=O (stereo not shown)
[S] Cc1ccc2c(c1)SCCC2NC(=O)c1ccc(C(F)(F)F)[nH]c1=O (stereo not shown)
-- ask Order the records so the highest IC50 appears first and the lowest last. Would you mind listing the labels in the order asked for?
-- reply Q, R, P, S
(Q: 3640 nM, R: 1830 nM, P: 430 nM, S: 260 nM)

[1] Cc1ccc2c(c1)Oc1cc(C)ccc1C2NC(=O)c1cc(-c2ccncc2)c(C(F)(F)F)[nH]c1=O
[2] O=C(NC(c1ccccc1)c1ccc(C2CCCCC2)cc1)c1ccc(C(F)(F)F)[nH]c1=O (stereo not shown)
[3] C=C(C)c1ccc(C(NC(=O)c2ccc(C(F)(F)F)[nH]c2=O)c2ccccc2)cc1 (stereo not shown)
[4] C=CCc1cc(C(=O)NC(c2ccc(C)cc2)c2ccc(C)cc2)c(=O)[nH]c1C(F)(F)F
-- ask Rank items: key IC50, increasing. Would you mind listing the labels in the order asked for?
-- reply 1, 4, 2, 3

[P] COc1ccc2c(c1)Sc1cc(OC)ccc1C2NC(=O)c1ccc(C(F)F)[nH]c1=O
[Q] Cc1ccc2c(c1)Sc1cc(C)ccc1C2NC(=O)c1cc(NC2CCCCC2)c(C(F)(F)F)[nH]c1=O
-- ask Lower value of IC50 belongs to which: P or Q ? Answer with the label corresponding to your selection.
-- reply Q
(Q: 130 nM, P: 270 nM)
